- Test system: Klebsiella pneumoniae
- method_description: Antibacterial activity against Klebsiella pneumoniae at 25 ug/ml incubated for 24 hrs by agar well diffusion method
- Format: functional
- conditions_used: read-out: DIZ
reported_metric: zone of inhibition at 25 µg/mL (mm)
Quick reminder: number only, in mm, skip the unit.

// `Cl.N[C@@H](Cc1ccc(O)cc1)C(=O)Oc1ccc2c(=O)c3ccccc3oc2c1` : zone of inhibition at 25 µg/mL value = 21

Per the record, `CC(C)(C)OC(=O)N1CCC[C@H]1C(=O)Oc1ccc2c(=O)c3ccccc3oc2c1` has zone of inhibition at 25 µg/mL of 13

Next:
`CC[C@H](C)[C@H](NC(=O)OC(C)(C)C)C(=O)Oc1ccc2c(=O)c3ccccc3oc2c1` has a reported zone of inhibition at 25 µg/mL of 7

Measured zone of inhibition at 25 µg/mL, `Cl.N[C@@H](CS)C(=O)Oc1ccc2c(=O)c3ccccc3oc2c1` : 15

Quick note, zone of inhibition at 25 µg/mL for `CC[C@H](C)[C@H](N)C(=O)Oc1ccc2c(=O)c3ccccc3oc2c1.Cl` landed at 8

// recorded zone of inhibition at 25 µg/mL for `CC(C)(C)OC(=O)N[C@@H](Cc1ccc(O)cc1)C(=O)Oc1ccc2c(=O)c3ccccc3oc2c1` : 18

Quick note, zone of inhibition at 25 µg/mL for `Cl.N[C@@H](Cc1ccccc1)C(=O)Oc1ccc2c(=O)c3ccccc3oc2c1` landed at 23

Item: `C[C@H](N)C(=O)Oc1ccc2c(=O)c3ccccc3oc2c1.Cl` | zone of inhibition at 25 µg/mL: 8

# zone of inhibition at 25 µg/mL of `C[C@H](NC(=O)OC(C)(C)C)C(=O)Oc1ccc2c(=O)c3ccccc3oc2c1` = 6

Value of zone of inhibition at 25 µg/mL reported for the compound `CC(C)[C@H](N)C(=O)Oc1ccc2c(=O)c3ccccc3oc2c1.Cl` is 16

Noted for `N[C@@H](Cc1ccc(O)cc1)C(=O)O` : its zone of inhibition at 25 µg/mL reads 4

Form field zone of inhibition at 25 µg/mL, entry `Cl.NCC(=O)Oc1ccc2c(=O)c3ccccc3oc2c1` : 17

###

Measured zone of inhibition at 25 µg/mL accompanies every entry in the list below.
- Test system: Candida albicans
- method_description: Antifungal activity against Candida albicans at 25 ug/ml incubated for 48 hrs by agar well diffusion method
- Assay type: functional
- conditions_used: read-out: DIZ
Express your answer in mm, writing the number without its unit.

Record excerpt, results attached:
The value of zone of inhibition at 25 µg/mL measured for the compound `CC(C)C[C@H](N)C(=O)Oc1ccc2c(=O)c3ccccc3oc2c1.Cl` turned out to be 10

Note to self: zone of inhibition at 25 µg/mL recorded for `CC[C@H](C)[C@H](N)C(=O)Oc1ccc2c(=O)c3ccccc3oc2c1.Cl` was 10

Others:
Entry `CC(C)[C@H](NC(=O)OC(C)(C)C)C(=O)Oc1ccc2c(=O)c3ccccc3oc2c1` , zone of inhibition at 25 µg/mL reported as 10

###

- Tested on: Erythrocyte
- method_description: Anti-inflammatory activity in human RBC assessed as inhibition of hypotonic solution-induced hemolysis after 10 mins by spectrophotometric method
- Assay type: functional, cell-based
Field: label. Allowed values: True (IC50 < 40 µg/mL) or False (IC50 >= 40 µg/mL).

Use the examples below as a reference point.
Ask: Please state whether IC50 is below 40 µg/mL for `CC(C)(C)OC(=O)N[C@@H](Cc1ccccc1)C(=O)Oc1ccc2c(=O)c3ccccc3oc2c1`
Reply: True

Ask: API: query returns whether the compound falls strictly under 40 µg/mL in IC50. Query: `CC(C)(C)OC(=O)N[C@@H](Cc1ccc(O)cc1)C(=O)Oc1ccc2c(=O)c3ccccc3oc2c1`
Reply: True

Ask: Below 40 µg/mL on IC50? Entry `CC(C)C[C@H](NC(=O)OC(C)(C)C)C(=O)Oc1ccc2c(=O)c3ccccc3oc2c1`
Reply: False

Ask: Hello, I'm reviewing records and need to know if IC50 of `CC(C)[C@H](NC(=O)OC(C)(C)C)C(=O)Oc1ccc2c(=O)c3ccccc3oc2c1` is below 40 µg/mL. Could you check?
Reply: False

Ask: Threshold test, IC50 < 40 µg/mL: `CC(C)C[C@H](N)C(=O)Oc1ccc2c(=O)c3ccccc3oc2c1.Cl`
Reply: False

More entries:
Ask: A record lists `CSCC[C@H](NC(=O)OC(C)(C)C)C(=O)Oc1ccc2c(=O)c3ccccc3oc2c1` . Is its IC50 below 40 µg/mL?
Reply: True

Ask: Is the reported IC50 for `Cl.N[C@@H](Cc1ccccc1)C(=O)Oc1ccc2c(=O)c3ccccc3oc2c1` strictly below 40 µg/mL?
Reply: True
